Experimental System: Sodium-dependent noradrenaline transporter (Homo sapiens)
Experiment Notes: Selectivity interaction (PSP Principial panel 20118+ (panel of GPCRs, transporter, and ion channels)) EUB0000283b SLC6A2
Value Kind: IC50 (µM)

| Compound | Unit Descriptor | Measured Result |
| --- | --- | --- |
| C[C@H]1CCCN1Cc1nc2cc(NC(=O)c3ccc4cnccc4c3)ccc2[nH]1 | µM | 8.7 |

###

Experimental System: Alpha-2C adrenergic receptor (Homo sapiens)
Sequence (P18825 whole entry): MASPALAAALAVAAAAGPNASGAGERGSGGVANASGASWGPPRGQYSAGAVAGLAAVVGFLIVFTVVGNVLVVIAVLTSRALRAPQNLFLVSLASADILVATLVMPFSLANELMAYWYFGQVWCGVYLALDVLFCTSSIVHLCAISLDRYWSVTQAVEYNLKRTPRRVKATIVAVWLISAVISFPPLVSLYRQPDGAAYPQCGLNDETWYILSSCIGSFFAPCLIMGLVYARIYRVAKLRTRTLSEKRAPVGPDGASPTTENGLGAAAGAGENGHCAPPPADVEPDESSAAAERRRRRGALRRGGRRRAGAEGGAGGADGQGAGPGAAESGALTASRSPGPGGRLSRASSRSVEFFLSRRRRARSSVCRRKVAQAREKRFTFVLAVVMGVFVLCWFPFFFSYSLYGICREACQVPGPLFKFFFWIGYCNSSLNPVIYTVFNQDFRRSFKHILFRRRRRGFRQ
Experiment Notes: Selectivity interaction (Radioligand binding assay (MDS Pharma Service)) EUB0000296b ADRA2C
pKi: −log10 of the molar value.
Value Kind: pKi

| Compound | Measured Result |
| --- | --- |
| CC(=O)Nc1c(C(C)=O)c(=O)n(C)c2nc(-c3ccc(Cl)cc3Cl)c(-c3ccc(Cl)cc3)cc12 [NAPHTHYRIDINONE] | 5.95 |

###

Experimental System: Phosphatidylinositol 4,5-bisphosphate 3-kinase catalytic subunit gamma isoform (Homo sapiens)
Sequence (P48736 whole entry, canonical isoform): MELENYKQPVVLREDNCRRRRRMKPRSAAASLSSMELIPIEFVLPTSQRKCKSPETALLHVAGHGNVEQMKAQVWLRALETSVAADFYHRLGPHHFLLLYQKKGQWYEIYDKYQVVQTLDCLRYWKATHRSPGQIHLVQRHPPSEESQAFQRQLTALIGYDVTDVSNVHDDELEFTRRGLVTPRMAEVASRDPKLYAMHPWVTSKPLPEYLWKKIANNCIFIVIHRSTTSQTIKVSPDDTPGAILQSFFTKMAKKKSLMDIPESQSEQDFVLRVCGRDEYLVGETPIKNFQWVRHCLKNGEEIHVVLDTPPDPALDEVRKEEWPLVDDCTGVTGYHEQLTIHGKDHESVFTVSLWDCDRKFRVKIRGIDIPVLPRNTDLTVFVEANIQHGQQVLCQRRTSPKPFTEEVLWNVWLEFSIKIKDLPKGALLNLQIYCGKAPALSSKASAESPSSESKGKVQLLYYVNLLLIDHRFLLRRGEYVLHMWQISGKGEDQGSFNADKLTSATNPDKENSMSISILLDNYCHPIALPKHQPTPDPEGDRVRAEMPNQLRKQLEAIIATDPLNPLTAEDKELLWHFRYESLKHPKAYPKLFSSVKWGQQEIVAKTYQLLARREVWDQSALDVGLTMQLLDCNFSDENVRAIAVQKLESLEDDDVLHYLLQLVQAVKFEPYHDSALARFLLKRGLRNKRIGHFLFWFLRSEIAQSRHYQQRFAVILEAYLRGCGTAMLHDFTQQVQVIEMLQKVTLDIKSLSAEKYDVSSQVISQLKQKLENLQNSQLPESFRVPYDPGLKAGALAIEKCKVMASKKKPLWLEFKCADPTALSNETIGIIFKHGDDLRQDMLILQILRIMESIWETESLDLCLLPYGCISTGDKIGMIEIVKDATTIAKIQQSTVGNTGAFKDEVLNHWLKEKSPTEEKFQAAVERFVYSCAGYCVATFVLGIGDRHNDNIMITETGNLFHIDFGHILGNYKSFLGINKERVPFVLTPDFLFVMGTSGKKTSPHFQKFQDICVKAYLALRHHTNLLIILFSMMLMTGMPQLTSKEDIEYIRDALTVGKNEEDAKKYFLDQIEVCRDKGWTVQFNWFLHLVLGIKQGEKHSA
Experiment Notes: Selectivity interaction (KinomeScan (DiscoverX, competition-binding assay)) EUB0000178b PIK3CG

| Compound | Kd (nM) |
| --- | --- |
| CN1C(=O)c2sccc2N(C)c2nc(Nc3ccc(S(N)(=O)=O)cc3)ncc21 | 8.4 |

###

Experimental System: Tyrosine-protein kinase Lyn (Homo sapiens, UniProt P07948)
Experiment Notes: Selectivity interaction (NanoBRET assay (HEK293T cells)) EUB0000713a LYN
Value Kind: EC50 (µM)

| Compound | Experimental System | Measured Result |
| --- | --- | --- |
| Cc1cc(C)c(-n2ccn3nc(-c4cccnc4)cc23)cc1NC(=O)c1cc(C#N)cc(S(F)(F)(F)(F)F)c1 | Tyrosine-protein kinase Lyn (Homo sapiens, UniProt P07948) | 7.4 |

###

Experimental System: UniProtKB O60678
Sequence (O60678 whole entry): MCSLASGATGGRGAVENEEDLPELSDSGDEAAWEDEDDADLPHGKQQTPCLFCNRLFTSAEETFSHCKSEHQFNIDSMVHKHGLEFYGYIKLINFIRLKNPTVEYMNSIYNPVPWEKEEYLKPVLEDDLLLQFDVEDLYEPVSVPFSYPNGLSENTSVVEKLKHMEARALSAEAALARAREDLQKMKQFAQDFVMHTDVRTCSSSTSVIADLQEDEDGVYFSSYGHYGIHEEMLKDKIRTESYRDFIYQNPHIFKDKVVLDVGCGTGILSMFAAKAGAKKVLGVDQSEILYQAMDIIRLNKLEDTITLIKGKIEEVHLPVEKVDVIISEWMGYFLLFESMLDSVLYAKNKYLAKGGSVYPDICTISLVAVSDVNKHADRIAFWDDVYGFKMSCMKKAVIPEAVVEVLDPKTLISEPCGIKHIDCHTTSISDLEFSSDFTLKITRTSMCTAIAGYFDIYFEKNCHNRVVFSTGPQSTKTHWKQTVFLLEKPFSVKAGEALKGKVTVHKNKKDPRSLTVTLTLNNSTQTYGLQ
Experiment Notes: Selectivity interaction (Methyltransferase panel (radioactive enzyme assay)) EUB0000216b PRMT3
pIC50: −log10 of the molar value.

| Compound | pIC50 |
| --- | --- |
| CC(C)N(CCCNC(=O)Nc1ccc(C(C)(C)C)cc1)C[C@H]1O[C@@H](n2cc(Br)c3c(N)ncnc32)[C@H](O)[C@@H]1O | < 4.00 |

###

Experimental System: Death-associated protein kinase 3 (Homo sapiens)
Sequence (O43293 whole entry): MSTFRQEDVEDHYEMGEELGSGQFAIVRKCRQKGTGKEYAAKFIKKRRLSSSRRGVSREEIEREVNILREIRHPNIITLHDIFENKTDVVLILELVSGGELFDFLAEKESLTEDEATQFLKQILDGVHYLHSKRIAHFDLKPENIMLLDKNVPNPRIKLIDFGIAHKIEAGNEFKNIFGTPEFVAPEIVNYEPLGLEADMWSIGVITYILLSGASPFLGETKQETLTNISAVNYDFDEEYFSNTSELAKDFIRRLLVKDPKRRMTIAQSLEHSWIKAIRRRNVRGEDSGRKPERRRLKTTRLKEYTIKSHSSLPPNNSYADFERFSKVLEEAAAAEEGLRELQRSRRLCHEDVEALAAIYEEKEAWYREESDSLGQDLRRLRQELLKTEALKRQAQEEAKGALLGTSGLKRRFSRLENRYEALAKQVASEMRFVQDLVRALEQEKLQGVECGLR
Experiment Notes: Selectivity interaction (KinomeScan (DiscoverX, competition-binding assay)) EUB0001135a DAPK3
pKd: −log10 of the molar value.
Value Kind: pKd

| Compound | Measured Result |
| --- | --- |
| O=C1NC(c2ccccn2)Sc2ccccc21 (stereo unspecified) | < 5.00 |

###

Experimental System: Muscarinic acetylcholine receptor M2 (Homo sapiens)
Experiment Notes: Selectivity interaction (PSP Principial panel 20118+ (panel of GPCRs, transporter, and ion channels)) EUB0000283b CHRM2
pIC50: −log10 of the molar value.

| Compound | pIC50 |
| --- | --- |
| C[C@H]1CCCN1Cc1nc2cc(NC(=O)c3ccc4cnccc4c3)ccc2[nH]1 | 5.74 |

###

Experimental System: Gamma-aminobutyric acid receptor subunit alpha-1 (Homo sapiens)
Sequence (P14867 whole entry): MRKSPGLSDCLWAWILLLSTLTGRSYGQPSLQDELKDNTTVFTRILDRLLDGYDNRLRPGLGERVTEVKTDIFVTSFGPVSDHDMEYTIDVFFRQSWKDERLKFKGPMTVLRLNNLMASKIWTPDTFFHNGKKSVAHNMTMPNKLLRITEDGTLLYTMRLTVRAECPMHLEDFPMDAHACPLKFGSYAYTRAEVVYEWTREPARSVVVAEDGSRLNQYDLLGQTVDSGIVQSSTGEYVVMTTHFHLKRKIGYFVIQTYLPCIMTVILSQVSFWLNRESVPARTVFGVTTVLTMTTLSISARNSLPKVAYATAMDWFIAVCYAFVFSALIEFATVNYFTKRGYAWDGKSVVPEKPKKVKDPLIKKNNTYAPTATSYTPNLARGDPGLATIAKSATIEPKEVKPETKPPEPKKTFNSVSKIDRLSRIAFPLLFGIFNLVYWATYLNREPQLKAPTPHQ
Experiment Notes: Selectivity interaction (GPCR panel (PDSP screen)) EUB0000540a GABRA1
Value Kind: Ki (nM)

| Compound | Experimental System | Value Kind | Unit Descriptor | Measured Result |
| --- | --- | --- | --- | --- |
| O=C(Nc1cccnn1)N1CC(C/C=C/c2cncc(Oc3ccc(C(F)(F)F)cn3)n2)C1 | Gamma-aminobutyric acid receptor subunit alpha-1 (Homo sapiens) | Ki | nM | 1140 |

###

Experimental System: Sodium-dependent dopamine transporter (Homo sapiens)
Experiment Notes: Selectivity interaction (GPCR panel (PDSP screen)) EUB0000541a SLC6A3
Value Kind: Ki

| Compound | Experimental System | Value Kind | Measured Result |
| --- | --- | --- | --- |
| O=C(Nc1ccc(-n2nc(-c3cccnc3)cc2C(F)(F)F)cn1)c1ccc(-c2ccccc2)c(F)c1 | Sodium-dependent dopamine transporter (Homo sapiens) | Ki | > 10 µM |

###

Experimental System: Neutrophil collagenase (Homo sapiens, UniProt P22894)
Sequence (P22894 whole entry): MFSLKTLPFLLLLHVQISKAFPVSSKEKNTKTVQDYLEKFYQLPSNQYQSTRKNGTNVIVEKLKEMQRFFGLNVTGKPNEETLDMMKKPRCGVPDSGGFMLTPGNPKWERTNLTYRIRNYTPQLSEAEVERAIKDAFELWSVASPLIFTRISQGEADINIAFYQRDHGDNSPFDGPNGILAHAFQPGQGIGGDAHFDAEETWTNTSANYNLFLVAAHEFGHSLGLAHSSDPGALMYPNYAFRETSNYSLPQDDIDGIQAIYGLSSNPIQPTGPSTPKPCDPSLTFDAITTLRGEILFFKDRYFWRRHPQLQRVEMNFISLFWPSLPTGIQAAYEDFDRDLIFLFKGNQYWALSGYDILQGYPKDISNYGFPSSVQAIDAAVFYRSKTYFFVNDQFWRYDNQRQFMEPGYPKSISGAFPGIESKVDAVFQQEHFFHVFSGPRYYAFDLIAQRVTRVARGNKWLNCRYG
Experiment Notes: Selectivity interaction (Lead profiling screen (Eurofins, enzymes, transporters, GPCRs, ion chanels)) EUB0000728a MMP8
pIC50: −log10 of the molar value.

| Compound | pIC50 |
| --- | --- |
| O=C(O)[C@H]1[C@H](Cn2nnc3ccccc3c2=O)CC[C@@H]1C(=O)c1ccc(OCCC2CCOCC2)cc1 [BAY-7598] | 7.82 |

###

Experimental System: Insulin receptor (Homo sapiens)
Experiment Notes: Selectivity interaction (Enzymatic assay) EUB0000609a INSR
Value Kind: IC50 (nM)

| Compound | Measured Result |
| --- | --- |
| COc1cc(N2CCC(O)CC2)ccc1Nc1cc(Nc2ccccc2S(=O)(=O)C(C)C)c2cc[nH]c2n1 | 470 |

###

Experimental System: Mitogen-activated protein kinase kinase kinase 3 (Homo sapiens, UniProt Q99759)
Sequence (Q99759 whole entry): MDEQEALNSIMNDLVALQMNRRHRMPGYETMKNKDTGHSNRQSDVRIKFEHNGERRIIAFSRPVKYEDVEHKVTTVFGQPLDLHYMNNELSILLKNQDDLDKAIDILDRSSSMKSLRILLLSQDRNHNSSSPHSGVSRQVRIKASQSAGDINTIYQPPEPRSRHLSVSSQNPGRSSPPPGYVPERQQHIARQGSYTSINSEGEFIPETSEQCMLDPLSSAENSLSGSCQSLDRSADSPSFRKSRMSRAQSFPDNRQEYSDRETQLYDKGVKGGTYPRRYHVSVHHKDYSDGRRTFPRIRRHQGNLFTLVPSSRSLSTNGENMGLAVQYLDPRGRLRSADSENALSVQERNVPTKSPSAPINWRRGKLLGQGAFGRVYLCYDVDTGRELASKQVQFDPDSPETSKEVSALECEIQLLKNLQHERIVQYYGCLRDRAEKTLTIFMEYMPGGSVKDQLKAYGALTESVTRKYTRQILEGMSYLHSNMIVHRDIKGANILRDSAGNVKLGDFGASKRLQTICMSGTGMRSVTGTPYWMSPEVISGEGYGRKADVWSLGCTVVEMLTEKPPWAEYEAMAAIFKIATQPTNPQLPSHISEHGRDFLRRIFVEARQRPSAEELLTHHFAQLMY
Experiment Notes: Selectivity interaction (Enzymatic assay) EUB0000178b MAP3K3
pIC50: −log10 of the molar value.

| Compound | pIC50 |
| --- | --- |
| CN1C(=O)c2sccc2N(C)c2nc(Nc3ccc(S(N)(=O)=O)cc3)ncc21 | 7.46 |

###

Experimental System: UniProt O60678
Experiment Notes: Selectivity interaction (Methyltransferase panel) EUB0000196bCl PRMT3
pEC50: −log10 of the molar value.

| Compound | pEC50 |
| --- | --- |
| O=C([C@@H](Cc1cccc(C(F)(F)F)c1)NS(=O)(=O)c1cc(F)c2c(c1)CCNC2)N1CCCC1 | < 5.00 |

###

Experimental System: UniProtKB Q9H3N8
Experiment Notes: Selectivity interaction (GPCR panel (PDSP screen)) EUB0000342a HRH4

| Compound | Experimental System | Ki |
| --- | --- | --- |
| O=C(c1ccc(F)cc1)N1CC(COc2ccc(Br)cc2)(C(=O)O)C1 | UniProtKB Q9H3N8 | > 10 µM |

###

Experimental System: YEATS domain-containing protein 4 (Homo sapiens)
Sequence (O95619 whole entry, the tested form may be a part): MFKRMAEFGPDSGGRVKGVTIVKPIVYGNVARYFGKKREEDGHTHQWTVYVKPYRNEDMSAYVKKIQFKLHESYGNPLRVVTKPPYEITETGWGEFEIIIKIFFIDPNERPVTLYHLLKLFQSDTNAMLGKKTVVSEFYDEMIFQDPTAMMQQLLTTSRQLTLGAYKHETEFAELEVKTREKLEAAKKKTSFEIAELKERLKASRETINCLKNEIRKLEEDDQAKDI
Experiment Notes: Selectivity interaction (Bromodomain panel (TR-FRET assay)) EUB0000283b YEATS4

| Compound | Experimental System | IC50 |
| --- | --- | --- |
| C[C@H]1CCCN1Cc1nc2cc(NC(=O)c3ccc4cnccc4c3)ccc2[nH]1 | YEATS domain-containing protein 4 (Homo sapiens) | > 20 µM |

###

Experimental System: Histone-lysine N-methyltransferase NSD2 (Homo sapiens)
Sequence (O96028 whole entry): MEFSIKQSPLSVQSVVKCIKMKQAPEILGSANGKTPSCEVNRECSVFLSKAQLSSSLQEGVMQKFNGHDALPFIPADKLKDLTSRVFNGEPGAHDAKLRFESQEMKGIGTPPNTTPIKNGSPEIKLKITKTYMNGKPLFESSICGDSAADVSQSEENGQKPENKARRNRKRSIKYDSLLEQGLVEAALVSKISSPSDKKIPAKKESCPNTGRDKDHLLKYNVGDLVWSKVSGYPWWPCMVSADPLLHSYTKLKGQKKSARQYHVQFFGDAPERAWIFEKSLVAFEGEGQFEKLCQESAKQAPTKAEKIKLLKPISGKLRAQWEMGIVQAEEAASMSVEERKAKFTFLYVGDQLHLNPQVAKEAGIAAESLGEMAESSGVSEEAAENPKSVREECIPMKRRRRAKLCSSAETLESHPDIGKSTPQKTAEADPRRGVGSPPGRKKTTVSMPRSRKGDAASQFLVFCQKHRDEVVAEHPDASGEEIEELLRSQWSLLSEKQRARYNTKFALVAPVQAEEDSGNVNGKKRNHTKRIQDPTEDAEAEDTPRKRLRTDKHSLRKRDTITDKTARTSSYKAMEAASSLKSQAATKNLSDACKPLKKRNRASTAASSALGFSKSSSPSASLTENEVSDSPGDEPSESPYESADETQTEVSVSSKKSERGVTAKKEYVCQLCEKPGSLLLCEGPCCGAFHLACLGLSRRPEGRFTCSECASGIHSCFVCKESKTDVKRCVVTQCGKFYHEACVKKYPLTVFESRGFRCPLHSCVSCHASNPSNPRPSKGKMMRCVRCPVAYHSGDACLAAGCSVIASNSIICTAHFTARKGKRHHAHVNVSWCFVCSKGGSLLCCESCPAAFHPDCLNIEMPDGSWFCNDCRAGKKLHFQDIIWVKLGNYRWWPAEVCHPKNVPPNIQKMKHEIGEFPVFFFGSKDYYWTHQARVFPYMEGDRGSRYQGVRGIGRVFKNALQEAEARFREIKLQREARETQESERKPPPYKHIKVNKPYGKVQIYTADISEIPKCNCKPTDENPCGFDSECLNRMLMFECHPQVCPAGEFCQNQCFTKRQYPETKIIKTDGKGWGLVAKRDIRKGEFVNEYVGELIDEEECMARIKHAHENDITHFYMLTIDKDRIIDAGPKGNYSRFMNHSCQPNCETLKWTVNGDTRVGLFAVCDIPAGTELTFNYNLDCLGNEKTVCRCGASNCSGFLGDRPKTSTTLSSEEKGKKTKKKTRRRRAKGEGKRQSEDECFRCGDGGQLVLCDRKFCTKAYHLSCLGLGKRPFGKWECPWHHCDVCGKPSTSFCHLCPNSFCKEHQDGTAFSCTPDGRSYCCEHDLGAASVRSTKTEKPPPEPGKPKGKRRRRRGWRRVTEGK
Experiment Notes: Selectivity interaction (Methyltransferase panel) EUB0000196bCl NSD2

| Compound | EC50 |
| --- | --- |
| O=C([C@@H](Cc1cccc(C(F)(F)F)c1)NS(=O)(=O)c1cc(F)c2c(c1)CCNC2)N1CCCC1 | > 10 µM |
